Ki values recorded for Cannabinoid receptor 1 (Homo sapiens)
Write down the numeric answer in nM and omit the unit.

> print(dat)
                          compound.string                            target.desc  units.symbol  readout.value
1  OCCCCCCCCCCCCCCCN[C@H](CO)Cc1ccc(O)cc1  Cannabinoid receptor 1 (Homo sapiens)            nM            530

Continue with the compound presented below.
Record CCCCC/C=C\C/C=C\CCCCCCCC(=O)N[C@H](CO)Cc1ccc(O)cc1 ; system Cannabinoid receptor 1 (Homo sapiens); Ki = 810

* * *

# target-desc: Fatty-acid amide hydrolase 1 (Homo sapiens)
# assay-method-text: Inhibition of FAAH (unknown origin) at 1 uM
The source made the active and inactive calls. The calls are words filed in the database; no cut-off is given here.
property: inhibition

Use the examples below as a reference point.
> print(dat)
                            compound.string                               target.desc    property  readout.value
1  O=C(CCC(=O)N[C@@H](CO)Cc1ccc(O)cc1)N[C@H](CO)Cc1ccc(O)cc1  Fatty-acid amide hydrolase 1 (Homo sapiens)  inhibition         Active
2        CCC(=O)N[C@@H](Cc1ccc(O)cc1)C(=O)O  Fatty-acid amide hydrolase 1 (Homo sapiens)  inhibition         Active
3       O=C(N[C@H](CO)Cc1ccc(O)cc1)c1ccccc1  Fatty-acid amide hydrolase 1 (Homo sapiens)  inhibition         Active
4       O=C(CCCCCCCO)N[C@H](CO)Cc1ccc(O)cc1  Fatty-acid amide hydrolase 1 (Homo sapiens)  inhibition         Active

Continue with the molecule presented below.
Documented inhibition of CCC(=O)N[C@H](COC)Cc1ccc(OC)cc1 : Active

Where do the numbers come from? From ChEMBL document CHEMBL3112497.
